As shown below, each of these binders has a reported STAT6 Bioassay IC50 (HEK293 STAT6 luciferase, 40 pM hIL-13) value.
studySystem: T1, hIL-4R on cells (STAT6-transfected HEK293, TF1, TF1/A12) (human, UniProt P24394 26-825)
T1 sequence (looked up): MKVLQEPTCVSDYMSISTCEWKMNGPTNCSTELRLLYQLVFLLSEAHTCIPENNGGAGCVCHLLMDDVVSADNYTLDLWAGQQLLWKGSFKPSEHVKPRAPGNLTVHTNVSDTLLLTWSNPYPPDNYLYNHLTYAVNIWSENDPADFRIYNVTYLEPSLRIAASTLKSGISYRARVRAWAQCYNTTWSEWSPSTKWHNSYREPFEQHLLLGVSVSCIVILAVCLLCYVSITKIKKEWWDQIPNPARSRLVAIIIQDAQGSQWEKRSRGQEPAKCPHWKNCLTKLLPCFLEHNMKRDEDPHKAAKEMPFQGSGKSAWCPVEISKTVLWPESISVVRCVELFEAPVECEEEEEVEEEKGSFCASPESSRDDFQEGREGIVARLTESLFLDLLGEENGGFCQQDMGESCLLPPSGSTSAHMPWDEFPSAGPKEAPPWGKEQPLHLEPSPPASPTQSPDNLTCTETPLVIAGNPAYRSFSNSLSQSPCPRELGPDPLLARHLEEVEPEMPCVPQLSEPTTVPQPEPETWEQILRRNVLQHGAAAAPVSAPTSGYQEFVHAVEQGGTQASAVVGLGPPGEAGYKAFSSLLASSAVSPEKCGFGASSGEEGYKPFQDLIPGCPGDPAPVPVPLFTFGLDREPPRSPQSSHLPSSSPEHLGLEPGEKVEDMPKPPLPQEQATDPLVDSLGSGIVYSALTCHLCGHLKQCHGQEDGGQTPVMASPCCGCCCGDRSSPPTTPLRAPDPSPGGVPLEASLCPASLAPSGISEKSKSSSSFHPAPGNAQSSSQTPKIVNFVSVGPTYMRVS
assayText: cell-based or functional assay

Consider the worked cases shown below.
VAB 1H1-2 (antibody, V domains shown, Apparently tested with mouse constant region (anti-mouse IgG capture/detection)) VH: QVQLVQSGAEVKKPGASVKVSCKASGYTFTSYGISWVRQAPGQGLEWMGWISVYNGNTNYAQKLQGRVTMTTDTSTSTAYMDLRSLRSDDAAVYYCARGSGYDFDYWGQGTLVTVSS VL: AIQMTQSPSSLSASVGDRVTITCRASQGIRNALGWYQQKPGKAPKLLIYAASSLQSGVPSRFSGSGSGTDFTLTISSLQSEDFATYYCLQDYNYPYTFGQGTKLEIK
> 10 nM
VAB 8G10-1 (antibody, V domains shown, Apparently tested with mouse constant region (anti-mouse IgG capture/detection)) VH: QVQLVQSGPEVKKPGASVKVSCKASGYTFTNYGISWVRQAPGQGLEWMGWISVYNGNINYAQKLQGRVTMTTDTSTSTAYMDLRSLRSDDTAVYYCARGSGYDFDYWGQGTLVTVSS VL: AIQMTQSPSSLSASVGDRVTITCRASQDIRNALGWYQQKPGKAPKLLIYAASSLQSGVPSRFSGSASGTDFTLTISSLQPEDFAAYYCLQDYNYPYTFGQGTKLEIK
> 10 nM

Now consider the entry below.
Input VX 3F7-6 (antibody, V domains shown, 395/397; 399/401 without saying which was assayed; Apparently tested with mouse constant region (anti-mouse IgG capture/detection)) VH: EVQLVESGGGLVQPGGSLRLSCAASGFTFSSFWMTWVRQAPGKGLEWVANIKQDGSEKYYVDSVKGRFTISRDNAKNSLYLQMNSLRAEDTAVYYCARDPGRTMVRGGIRYYYGMDVWGQGTTVTVSS VL: DIQMTQSPSSVSASVGDRVTISCRASQGVSSWLAWYQQKPGNAPKLLISAASSIQSGVPSRFSGSGSGTDFTLTISSLQPEDFATYYCQQANSFPLTFGGGTKVEIK . Output STAT6 Bioassay IC50 (HEK293 STAT6 luciferase, 40 pM hIL-13): > 10 nM
